For each record, write down the corresponding IC50.
Measured Target: MDM2 (Homo sapiens, UniProt Q00987)
Sequence (Q00987 2-138): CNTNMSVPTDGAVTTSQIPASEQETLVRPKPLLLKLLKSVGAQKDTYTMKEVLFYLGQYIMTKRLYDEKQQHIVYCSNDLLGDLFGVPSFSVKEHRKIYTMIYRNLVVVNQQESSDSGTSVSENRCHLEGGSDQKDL
Assay Info: HTRF test: inhibition of MDM2-p53 protein binding

Guide cases for IC50, answers given:
>  <Compound>
Cc1c(Cl)ccc2c(/C=C3\NC(=O)N([C@H](CO)c4ccc(C#N)cc4)C3=O)c[nH]c12

>  <Measured Target>
MDM2 (Homo sapiens, UniProt Q00987)

>  <IC50>
10 to 100 nM

$$$$
>  <Compound>
N#Cc1ccc(CN2C(=O)N/C(=C\c3c[nH]c4c(F)c(Cl)ccc34)C2=O)cc1

>  <Measured Target>
MDM2 (Homo sapiens, UniProt Q00987)

>  <IC50>
< 10 nM

$$$$
>  <Compound>
N#Cc1ccc([C@H](CO)N2C(=O)N/C(=C\c3c[nH]c4cc(Cl)ccc34)C2=O)cc1

>  <Measured Target>
MDM2 (Homo sapiens, UniProt Q00987)

>  <IC50>
< 10 nM

$$$$
>  <Compound>
O=C1N/C(=C\c2c[nH]c3c(F)c(Cl)ccc23)C(=O)N1C(CO)c1ccc(Cl)cc1 (centres unmarked)

>  <Measured Target>
MDM2 (Homo sapiens, UniProt Q00987)

>  <IC50>
10 to 100 nM

$$$$
>  <Compound>
N#Cc1ccc(C(C=O)N2C(=O)N/C(=C\c3c[nH]c4c(F)c(Cl)ccc34)C2=O)cc1F (centres unmarked)

>  <Measured Target>
MDM2 (Homo sapiens, UniProt Q00987)

>  <IC50>
10 to 100 nM

$$$$

Parameters: items (list). Returns: IC50 for each item.
1. O=C1N/C(=C\c2c[nH]c3cc(Cl)ccc23)C(=O)N1C(CO)c1ccc(Cl)cc1 (centres unmarked)
2. N#Cc1ccc(C(C(=O)NC(CO)CO)N2C(=O)N/C(=C\c3c[nH]c4c(F)c(Cl)ccc34)C2=O)cc1 (centres unmarked)
3. N#Cc1ccc(CN2C(=O)N/C(=C\c3c[nH]c4cc(Cl)ccc34)C2=O)cc1
4. N#Cc1cc(F)c(CN2C(=O)N/C(=C\c3c[nH]c4c(F)c(Cl)ccc34)C2=O)cc1F

Response given:
1. 10 to 100 nM
2. < 10 nM
3. 10 to 100 nM
4. < 10 nM

Parameters: items (list). Returns: IC50 for each item.
1. O=C1N/C(=C\c2c[nH]c3cc(Cl)ccc23)C(=O)N1Cc1ccc(Cl)cc1
2. O=C1N/C(=C\c2c[nH]c3c(F)c(Cl)ccc23)C(=O)N1C(CO)c1ccc(F)c(F)c1 (centres unmarked)
3. O=C1N/C(=C\c2c[nH]c3cc(Cl)ccc23)C(=O)N1Cc1ccc(F)cc1
4. N#Cc1ccc(C(COP(=O)(O)O)N2C(=O)N/C(=C\c3c[nH]c4cc(Cl)ccc34)C2=O)cc1 (centres unmarked)
5. N#Cc1cccc(CN2C(=O)N/C(=C\c3c[nH]c4c(F)c(Cl)ccc34)C2=O)c1
6. O=C1N/C(=C\c2c[nH]c3c(F)c(Cl)ccc23)C(=O)N1Cc1c(F)cc(Cl)cc1F

Response given:
["10 to 100 nM", "10 to 100 nM", "10 to 100 nM", "10 to 100 nM", "10 to 100 nM", "10 to 100 nM"]

Parameters: items (list). Returns: IC50 for each item.
1. Cc1c(Cl)ccc2c(/C=C3\NC(=O)N(C(CO)c4ccc(Cl)c(F)c4)C3=O)c[nH]c12 (centres unmarked)
2. O=C1N/C(=C\c2c[nH]c3c(Cl)c(Cl)ccc23)C(=O)N1Cc1ccc(F)c(F)c1
3. Cc1c(Cl)ccc2c(/C=C3\NC(=O)N(C(C(=O)NC(COP(=O)(O)O)COP(=O)(O)O)c4ccc(F)c(F)c4)C3=O)c[nH]c12 (centres unmarked)
4. Cc1c(Cl)ccc2c(/C=C3\NC(=O)N(C(C(=O)NCCO)c4ccc(C#N)c(F)c4)C3=O)c[nH]c12 (centres unmarked)
5. Cc1c(Cl)ccc2c(/C=C3\NC(=O)N(Cc4ccc(C#N)c(F)c4)C3=O)c[nH]c12

Response given:
["10 to 100 nM", "10 to 100 nM", "> 100 nM", "< 10 nM", "10 to 100 nM"]

Parameters: items (list). Returns: IC50 for each item.
1. O=C(NC(CO)CO)C(c1ccc(Cl)cc1)N1C(=O)N/C(=C\c2c[nH]c3c(F)c(Cl)ccc23)C1=O (centres unmarked)
2. Cc1c(Cl)ccc2c(/C=C3\NC(=O)N([C@@H](CO)c4ccc(C#N)cc4)C3=O)c[nH]c12
3. N#Cc1ccc(CN2C(=O)N/C(=C\c3c[nH]c4cc(Cl)ccc34)C2=O)cc1F

Response given:
["< 10 nM", "< 10 nM", "10 to 100 nM"]

// data source = patent US20250223307A1
